System: HCC-2998 colon
Test: NCI-60 one-dose screen, 48 h (100 = growth as untreated, 0 = no growth, -100 = all killed)
Details: 10 µM
Compounds without any hit were thinned out: in the full panel of roughly 83,000, 20% have a hit.
Answer no (0) if growth is under 30%, and yes (1) if it is 30% or more.

[
  {
    "Compound": "CC(C)=CCc1c2c(c(O)c3c1O[C@]14C(=C[C@@H]5C[C@H]1C(C)(C)O[C@@]4(C/C=C(/C)C(=O)O)C5=O)C3=O)C=CC(C)(C)O2",
    "Target Entity": "HCC-2998 colon",
    "Assigned Class": "no (0)"
  },
  {
    "Compound": "CN1C(=O)[C@]23SSC1(C)C(=O)N2[C@H]1Nc2ccccc2C1([C@@]12c4ccccc4N[C@@H]1N1C(=O)C4(C)SS[C@]1(C(=O)N4C)[C@H]2O)[C@@H]3O (some centres undefined)",
    "Target Entity": "HCC-2998 colon",
    "Assigned Class": "no (0)"
  },
  {
    "Compound": "CC1=C2C(=C[C@@](C)(COC(=O)c3ccc(S(=O)(=O)F)cc3)[C@@H]2O)C(=O)[C@](C)(O)C12CC2",
    "Target Entity": "HCC-2998 colon",
    "Assigned Class": "no (0)"
  },
  {
    "Compound": "CC1=C[C@H]2O[C@@H]3C[C@H]4OC(=O)/C=C\\C=C\\[C@H]([C@@H](C)O)OCC/C(C)=C/C(=O)OC[C@@]2(CC1)[C@]4(C)[C@]31CO1",
    "Target Entity": "HCC-2998 colon",
    "Assigned Class": "no (0)"
  }
]

Threshold query (growth >= 30%) on CC(=O)O[C@@H]1[C@@H]2O[C@H]2[C@@](C)(O)C(=O)[C@@H](C)C/C=C/[C@H]2[C@@H]3O[C@]3(C)[C@@H](C)C3[C@H](Cc4ccccc4)NC(=O)[C@@]312 (some centres undefined)
yes (1)

// same read-out, input: `COc1cc(OC)c(S(=O)(=O)N(CCCl)CCCl)cc1C(=O)/C=C/c1ccc(Cl)cc1`
yes (1)

// same read-out, input: CCC(C)[C@H]1C(=O)O[C@H](C(C)C)C(=O)N(C)[C@@H](C(C)C)C(=O)O[C@H](C(C)C)C(=O)N(C)[C@@H](C(C)C)C(=O)O[C@H](C(C)C)C(=O)N1C (some centres undefined)
yes (1)

// same read-out, input: `CC1=C[C@H]2O[C@@H]3C[C@H]4OC(=O)/C=C\C=C\[C@H]([C@@H](C)O)OCC[C@@H](C)[C@H](O)C(=O)OC[C@@]2(CC1)[C@]4(C)[C@]31CO1`
no (0)

// same read-out, input: `C/C=C\C(=O)O[C@@H]1CC2O[C@@H]3C=C(C)C(=O)C[C@]3(C)[C@]1(C)[C@]21CO1`
no (0)

// same read-out, input: `CC1=C(CCC=NNC(N)=O)C2=C(C)C3(CC3)[C@@](C)(O)C(=O)C2=C1`
no (0)
